# procedure.details: Corrosion rate by LPR sweep, copper coupons in synthetic water, 50° C., 1 ppm free chlorine after 0.5 hrs (Examples 1 and 2)
# condition.summary: 2 ppm; 16 hrs
quantity: corrosion rate (mpy)
Entry rule: numbers only, all in mpy.

Query: Using the record for CCCCCCCC(=O)NCCN(CCOCC(=O)[O-])CC(=O)[O-].[Na+].[Na+] [DCyADAA, Disodium Capryloamphodiacetate] , report its corrosion rate.
Result: 0.2411

Query: Any idea what corrosion rate was measured for CCCCCCCCCCCCN(CCC(=O)[O-])CCC(=O)O.[Na+] [SL, Sodium Lauriminodipropionate, reference compound] ?
Result: 0.0580

Query: Please report the recorded corrosion rate for CCCCCCCC(=O)NCCN(CCOCCC(=O)[O-])CCC(=O)[O-].[Na+].[Na+] [DCADPP, Disodium Capryloamphodipropionate] .
Result: 0.2749

Query: Which measured corrosion rate value corresponds to CCCCCCCCCCCC(=O)NCCN(CCOCC(=O)[O-])CC(=O)[O-].[Na+].[Na+] [DLADAA, Disodium Lauroamphodiacetate] ?
Result: 0.0282
